Tested on: Staphylococcus aureus
Assay: Antibacterial activity against Staphylococcus aureus ATCC 25923 assessed as reduction in bacterial cell growth measured for 18 hrs by Mueller-Hinton broth based two-fold serial dilution method
Type: functional
Square brackets hold non-standard residues; d marks the D form. Peptide text beside a SMILES is read from it. * marks the point of attachment. Pentadecanoyl = CCCCCCCCCCCCCCC(=O)*; NMeR = CN[C@@H](CCCNC(=N)N)C(=O)O; NMeI = CC[C@H](C)[C@H](NC)C(=O)O; Tridecanoyl = CCCCCCCCCCCCC(=O)*; NMeL = CN[C@@H](CC(C)C)C(=O)O; NMeK = CN[C@@H](CCCCN)C(=O)O; Nonanoyl = CCCCCCCCC(=O)*
parameter_measured: MIC (µM)

[[record]]
compound = "CCCCCCCCCCCCCCC(=O)NCC(=O)N[C@@H](CC(C)C)C(=O)N(C)[C@@H](CC(C)C)C(=O)N[C@@H](CCCCN)C(=O)N[C@@H](CCCNC(=N)N)C(=O)N(C)[C@H](C(=O)N[C@@H](CCCCN)C(=O)N[C@H](C(=O)N[C@@H](CC(C)C)C(=O)N[C@@H](CC(C)C)C(N)=O)[C@@H](C)O)[C@@H](C)CC (Pentadecanoyl-GL[NMeL]KR[NMeI]KTLL-NH2)"
val = 8

[[record]]
compound = "CCCCCCCCCCCCCCC(=O)NCC(=O)N[C@@H](CC(C)C)C(=O)N[C@@H](CC(C)C)C(=O)N(C)[C@@H](CCCCN)C(=O)N[C@@H](CCCNC(=N)N)C(=O)N[C@H](C(=O)N(C)[C@@H](CCCCN)C(=O)N[C@H](C(=O)N[C@@H](CC(C)C)C(=O)N[C@@H](CC(C)C)C(N)=O)[C@@H](C)O)[C@@H](C)CC (Pentadecanoyl-GLL[NMeK]RI[NMeK]TLL-NH2)"
val = 8

[[record]]
compound = "CCCCCCCCCCCCC(=O)NCC(=O)N[C@@H](CC(C)C)C(=O)N[C@@H](CC(C)C)C(=O)N[C@@H](CCCCN)C(=O)N[C@@H](CCCNC(=N)N)C(=O)N[C@H](C(=O)N[C@@H](CCCCN)C(=O)N[C@H](C(=O)N[C@@H](CC(C)C)C(=O)N[C@@H](CC(C)C)C(N)=O)[C@@H](C)O)[C@@H](C)CC (Tridecanoyl-GLLKRIKTLL-NH2)"
val = 8

[[record]]
compound = "CCCCCCCCCCCCCCC(=O)NCC(=O)N[C@@H](CC(C)C)C(=O)N[C@@H](CC(C)C)C(=O)N[C@@H](CCCCN)C(=O)N(C)[C@@H](CCCNC(=N)N)C(=O)N[C@H](C(=O)N(C)[C@@H](CCCCN)C(=O)N[C@H](C(=O)N[C@@H](CC(C)C)C(=O)N[C@@H](CC(C)C)C(N)=O)[C@@H](C)O)[C@@H](C)CC (Pentadecanoyl-GLLK[NMeR]I[NMeK]TLL-NH2)"
val = 16

[[record]]
compound = "CCCCCCCCC(=O)NCC(=O)N[C@@H](CC(C)C)C(=O)N[C@@H](CC(C)C)C(=O)N[C@@H](CCCCN)C(=O)N(C)[C@@H](CCCNC(=N)N)C(=O)N[C@H](C(=O)N(C)[C@@H](CCCCN)C(=O)N[C@H](C(=O)N[C@@H](CC(C)C)C(=O)N[C@@H](CC(C)C)C(N)=O)[C@@H](C)O)[C@@H](C)CC (Nonanoyl-GLLK[NMeR]I[NMeK]TLL-NH2)"
val = 128

[[record]]
compound = "CCCCCCCCC(=O)NCC(=O)N[C@@H](CC(C)C)C(=O)N(C)[C@@H](CC(C)C)C(=O)N[C@@H](CCCCN)C(=O)N[C@@H](CCCNC(=N)N)C(=O)N(C)[C@H](C(=O)N[C@@H](CCCCN)C(=O)N[C@H](C(=O)N[C@@H](CC(C)C)C(=O)N[C@@H](CC(C)C)C(N)=O)[C@@H](C)O)[C@@H](C)CC (Nonanoyl-GL[NMeL]KR[NMeI]KTLL-NH2)"
val = 128


All values here come from ChEMBL document CHEMBL5608163.
